Values were extracted from patent US20170189505A1.

Below, each entry is listed with its recorded peptide exchange yield.
- Target Or Test System: HLA-A*24 (human)
- Assay Procedure: UV peptide exchange, anti-b2m ELISA
Measurement Kind: peptide exchange yield

binder="TFSVSSHLF [SEQ ID No 222 peptide …]" measurement_kind="peptide exchange yield" reported_value="50 to 75%"
binder="RYSTGLAGNLL [SEQ ID No 221 peptide …]" measurement_kind="peptide exchange yield" reported_value="50 to 75%"
binder="IYQLDTASI [SEQ ID No 182 peptide …]" measurement_kind="peptide exchange yield" reported_value="50 to 75%"
binder="EYINQGDLHEF [SEQ ID No 275 peptide …]" measurement_kind="peptide exchange yield" reported_value="50 to 75%"
binder="KFSSFSLFF [SEQ ID No 164 peptide …]" measurement_kind="peptide exchange yield" reported_value="50 to 75%"
binder="DYTTWTALL [SEQ ID No 165 peptide …]" measurement_kind="peptide exchange yield" reported_value="> 75%"
binder="KYMVYPQTF [SEQ ID No 267 peptide …]" measurement_kind="peptide exchange yield" reported_value="> 75%"
binder="QYLGQIQHI [SEQ ID No 268 peptide …]" measurement_kind="peptide exchange yield" reported_value="50 to 75%"
